- Test system: K4 kissing-loop RNA reporter;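 note: bound reporter read as fluorescence of individual clusters on recovered sequencing chips by microscopy, with normalized cluster intensities fitted with a binding model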
- test name: apparent KD of K4 kissing-loop reporter; higher = weaker reporter binding
- test conditions: Eterna round: R107; input ligand: tryptophan 2.4 mM
Rule: apparent KD of K4 kissing-loop reporter under 300 nM gives Condition not met, otherwise Condition met.

Examples from the recorded data:
Input: Please check the record GGAUAGGACAGAGGAUAUCCUUGAGGCAAGAAACUUGUCUCUAAAAGGAUGAACCUAGUGAUGUUAGGAGAAGGCUGUCCUAUCG [FmnBX 13 - #SwitchBubble #StaticStem #Palindromic] and state if its apparent KD of K4 kissing-loop reporter is at or above 300 nM.
Output: Condition not met

Input: Could you tell me if the measured apparent KD of K4 kissing-loop reporter of UUGUUUGGUUGAGAGGUUGGGCGAGAUGAUACCAGUAGAGAAGAGUACCCUUGGCAGCAUAGGAGAGAUAUAGUGAUGUUGUAUA [SSTheophA.R] reaches 300 nM or more?
Output: Condition met

Input: Evaluate CCAUCGCUAUUCGAUACCAGUCAUAAAAUCUUUGGUUAAAUAAAGGAGUGAUGUUCCCAAGACCCUUGGCAGCGAAUAGUGAUGG [Theophylline B K4 7] : apparent KD of K4 kissing-loop reporter at minimum 300 nM?
Output: Condition not met

Input: Reported apparent KD of K4 kissing-loop reporter reaches at least 300 nM for ACGACUGGAUGAAUAACAUCUAGUCGAGAUCGAGGACCGGUACGGCCGCCACUCGAGCUAACUGCGAGUGAUGUUCGAUAAUAAA [#OpenEnded 2] ?
Output: Condition not met

Input: Is the recorded value of apparent KD of K4 kissing-loop reporter equal to or greater than 300 nM for this sequence? CCAUCGCUAUUCGAUACCAGCUACUUAGUGAUGUUAAGUUAAAAUCCAUUGUAGAUGGAAAGCCCUUGGCAGCGAAUAGUGAUGG [Theophylline B K4 22]
Output: Condition met

New cases:
Input: Kindly determine if apparent KD of K4 kissing-loop reporter recorded for CUUAUGGACUAAGGAUAUGGGUAUACCGGAAGCGCCGUCACGGUAGUGAUGUUACACGCGACGGGACCAGAAGGUAGAUCGCUCC [theeternabot_exclusion_KL_FMN_B_33] is above or exactly 300 nM.
Output: Condition not met

Input: Item UUCGAUCAGUGAUGUUGAUCAAUAGUCGAAGGAGCGCUAUAGAUAGCAGGUAGGUCGCGACUACAAGGUGUUAAGACACCUCGAA [Arg A SS t9] with apparent KD of K4 kissing-loop reporter of 300 nM or above?
Output: Condition met

Input: Given UGACUGGAUGGAAGGAGCGCUAAACUCCUAGUGAUGUUAGGGACACGAGACAAAGUCUCGAAGCAGGUAGGUCGCCAUCUAGUCU [FiskerMod 13 - Jieux - Same State - Arginine B] , state whether its apparent KD of K4 kissing-loop reporter is at least 300 nM.
Output: Condition not met

Input: Evaluate CAUAGACAAGUGAUGUUUGUCAUAACCGAAGGAGCGUCGUUGAAGACAGGUAGGUCGCGGAUUAAUUAAGAUUAUAUUCUUUUUA [JR_SSArginiA_Sub019] : apparent KD of K4 kissing-loop reporter at minimum 300 nM?
Output: Condition met

Input: API: above_or_equal(metric=apparent KD of K4 kissing-loop reporter, cutoff=300 nM) for item GAACGAGUGAUGUUCGUUAUUAUGCAUUCCGAGGAUAUGGGAUUAGCCAGAAGGCGGAAUCAAUCUUCGAGUGAUGUUCGAAGAU [Same State FMN A GF 11]
Output: Condition not met

Input: Has "GCCGUACGCAUGGAUACCAGCUGCGAAGUGAUGUUUCGGGCGAUCAAAGGAUCGCCCUACAGCCCUUGGCAGCCAUGCGUACGGC" a recorded apparent KD of K4 kissing-loop reporter greater than or equal to 300 nM?
Output: Condition not met

Input: Say whether CAUUCGAAAUGCAGUGAUGUUGCAACUGAUACCAGUAUCGAAAGAUACCCUUGGCAGCGGAAAACCGCUACGUAUUUUUUGAAUG [Ex Theophylline A K4 25] shows apparent KD of K4 kissing-loop reporter of 300 nM or more.
Output: Condition not met

Input: Evaluate AACGCUGGAUGAAUAACAUCUAGCGAAAUUCGAGGACCGGUACGGCCGCCACUCGAGCUAACUGCGAGUGAUGUUCGAUAAUAAA [Mat - Mod of OpenEnded 3 - D5] : apparent KD of K4 kissing-loop reporter at minimum 300 nM?
Output: Condition not met

Input: // inclusive: apparent KD of K4 kissing-loop reporter at least 300 nM? input: AUUCUAUGGAGUGAUGUUCCUGUGAUGUCACGAGGACCGGUACGGCCGCCACUCGAUGUAUUGGUUUUUGAAAGAAACAACUGCA [Same State-Tryptophan A]
Output: Condition not met

----------
- System: MS2 coat protein
- test name: apparent KD of MS2 coat protein; designed switch direction (-1 OFF switch, 1 ON switch): 1; higher = weaker reporter binding
- test conditions: input ligand: microRNA oligo, concentration not stated
Listed here are sequences together with their documented apparent KD of MS2 coat protein.
Unit nM implied. Number only.

These recorded examples may help you get a feel for the data.
Input UGGUACAUGGGAGGAUAUCUCAUGGUGACAUGAGGAUCACCCAUGUAGUUGGAGCCGAAAGGCUGAGAGAAGGCCCAUGUACCU [JL SSNG1 3.75] (Eterna round: R96, puzzle: Same State NG 2) . Output apparent KD of MS2 coat protein: 98

apparent KD of MS2 coat protein measured on GUGGCGGGUUGAGGAUAUUGGUUGCCGCUGUUUUACAUGAGGAUCACCCAUGUGGGUUGCGGUUUCGAGAAGGGAGGUUGCUGG [salish99_SSNG2_r04_055] (Eterna round: R96, puzzle: Same State NG 2) = 11.7

Consider GUGGCGGGUUGAGGAUAUUGGUUGCCUCUGUUUUACAUGAGGAUCACCCAUGUGGGUUGCGGUUUCGAGAAGGGAGGUUGCUGG [salish99_SSNG2_r04_054] (Eterna round: R96, puzzle: Same State NG 2) . Its measured apparent KD of MS2 coat protein is 420

***
Summary for this sequence, CGUCGUUUGAUAGGAUAUCGCUUUCCAUGAGGAUCACCCAUGUUUACCACGCUGGUUUUUCUUUCCGAGAAGGAUUCUGAUGUU [salish99_SSNG02_r04_025] (Eterna round: R96, puzzle: Same State NG 2) : apparent KD of MS2 coat protein is 143

Recorded result, AGCUAGUACCGAGGAUAUACGUACAUGAGGAUCACCCAUGUAUACAUGGUUUAAUGAAACUACAUGUAGAAGGCGGUACUAGCA [Mat - Same State NG 2 - JL mod - D51] (Eterna round: R96, puzzle: Same State NG 2) , apparent KD of MS2 coat protein: 157

apparent KD of MS2 coat protein reported for this sequence CCAGCUUCGGCAGGAUAUGGCGCGCCACUACGCCCAGAAGGGCCGGAAGAUACUACAACCACUACAUGAGGAUCACCCAUGUCA [Eternabot solution 1] (Eterna round: R96, puzzle: Same State NG 1) : 5.79

Reported apparent KD of MS2 coat protein for GUAAUCGUUAUAGGAUAUCAUGAGGAUUACCCAUGAGAAGGGUGAUCCCGAUCCAUAUUCAGAAAAUGAAUGUGGAUAGAUUGC [Omei NG1 A] (Eterna round: R96, puzzle: Same State NG 1) was 20.6

apparent KD of MS2 coat protein measured on CUAGCGCAUGCAGGAUAUCUGGUGUAUGCCUCGAGAUAACAUGAGGAUCACCCAUGUCCGCUCAAAGAGAAGGGCAUGCAAAUG [Eternabot solution 8] (Eterna round: R96, puzzle: Same State NG 2) = 177

Sure, the documented apparent KD of MS2 coat protein for UACAUGAGGAUCACCCAUGUAGUCCAUGCACCGGACCGAAGCGAGGAUAUGGUCUGCAUCGGUGGCCAGAAGGCGCUUCCAGAA [Eternabot solution 26] (Eterna round: R96, puzzle: Same State NG 3) is 21.3

----------
Quick list: apparent KD of MS2 coat protein per entry.
- Tested on: MS2 coat protein
- test name: apparent KD of MS2 coat protein, switch ON state; designed switch direction (-1 OFF switch, 1 ON switch): -1; higher = weaker reporter binding
- test conditions: FMN input: 0 or 200 uM; Eterna round: R93 (includes R88 designs)

Field apparent KD of MS2 coat protein (entry CCUCGACAUGAGGAUCACCCAUGUUAGGAUAUAUACAAACCCGAAAACCAAGGGCAAAAUAGAAGGAACGUGCA [Masoedma] ) reads 14.8 nM

For ACAGUUACAGGAUAUACAUGAAUAACUUCAAAGAAAACUCUACAUGAGGAUCACCCAUGUAGAAGGGUAACUGA [Ex2 Design 200 (fingers crossed): Random 18] the sequence record lists apparent KD of MS2 coat protein as 14.3 nM

For record AAAGGACAUGAGGAUCACCCAUGUGAGGAUAUCGGAAAAGGAAAAAUAAAAAAGAAGACGAGAAGGCACACCAA [Mat - Exclusion 1 - Eli mod - D76] the listed apparent KD of MS2 coat protein is 80.6 nM

Given item AACAAGUCAGGAUAUCCGAAAAGUAAAUAAGUAAAACAAAAGGAGAAGGGACAUGAGGAUCACCCAUGUAAAUA [JR_Exc004_Sub015] , the value recorded as its apparent KD of MS2 coat protein is 48.1 nM

Summary for this sequence, AUAAAACAUGAGGAUCACCCAUGUGAGGAUAUCUGAAAAAAAAAAAGAAAAAAAAAAAAGAGAAGGCACAAUAA [Amethyst 44] : apparent KD of MS2 coat protein is 65.1 nM

Further cases:
The sequence identified as CUCAUGUUAGGAUAUAAAUGAAAUGAAGUGAAAGAAAAGAAUUAGAAGGAACAUGAGGAUCACCCAUGUUAGAA [EteRNA is fun!] registered its apparent KD of MS2 coat protein at 47.8 nM

"AAGGGACAUGAGGAUCACCCAUGUAAGGAUAUCGGAAAAGGAAAAAAAAAAAAGAAGACGAGAAGGUACAAAAA" has a reported apparent KD of MS2 coat protein of 122 nM

Origin of values: the supplement of paper PMC9170038
